target: GlcNAc(b1-2)[GlcNAc(b1-4)]Man(a1-3)[GlcNAc(b1-2)Man(a1-6)]Man(b1-4)GlcNAc(b1-4)GlcNAc; assay: glycan array binding signal (z-score within array); higher = stronger binding; conditions: glycan notation: IUPAC condensed, linker removed
Shown is part of a subset that was picked to be rich in the strongest signals.
MEASURED_ATTRIBUTE: glycan array binding signal (z-score)

INSERT INTO measurements (binder, measured_attribute, assay_value) VALUES
  ('AMA (Arum maculatun) (protein) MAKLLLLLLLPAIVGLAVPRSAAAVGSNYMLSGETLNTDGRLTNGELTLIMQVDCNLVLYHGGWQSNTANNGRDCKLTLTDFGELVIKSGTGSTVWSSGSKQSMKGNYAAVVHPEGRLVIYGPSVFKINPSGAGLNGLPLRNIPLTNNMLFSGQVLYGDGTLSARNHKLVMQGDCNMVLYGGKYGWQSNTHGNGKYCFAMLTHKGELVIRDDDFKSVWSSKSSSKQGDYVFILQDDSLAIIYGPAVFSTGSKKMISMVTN', 'glycan array binding signal (z-score)', 7.69),
  ('Microvirin-2 (Microcystis aeruginosa) (protein) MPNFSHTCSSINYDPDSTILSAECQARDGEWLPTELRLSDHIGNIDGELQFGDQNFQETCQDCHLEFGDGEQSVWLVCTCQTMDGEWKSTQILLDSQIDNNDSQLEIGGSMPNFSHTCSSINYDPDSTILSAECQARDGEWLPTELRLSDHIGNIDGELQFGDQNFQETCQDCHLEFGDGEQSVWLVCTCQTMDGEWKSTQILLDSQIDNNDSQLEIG', 'glycan array binding signal (z-score)', -0.139),
  ('Nictaba (Nicotiana tabacum), Q94EW1 (protein) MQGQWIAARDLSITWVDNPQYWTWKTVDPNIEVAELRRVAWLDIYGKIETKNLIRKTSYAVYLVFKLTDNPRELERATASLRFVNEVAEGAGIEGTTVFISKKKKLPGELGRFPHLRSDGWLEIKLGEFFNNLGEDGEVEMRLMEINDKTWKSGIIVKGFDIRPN', 'glycan array binding signal (z-score)', -0.101);
